Biological target: Casein kinase I isoform alpha (Homo sapiens)
Sequence (P48729 whole entry, canonical isoform): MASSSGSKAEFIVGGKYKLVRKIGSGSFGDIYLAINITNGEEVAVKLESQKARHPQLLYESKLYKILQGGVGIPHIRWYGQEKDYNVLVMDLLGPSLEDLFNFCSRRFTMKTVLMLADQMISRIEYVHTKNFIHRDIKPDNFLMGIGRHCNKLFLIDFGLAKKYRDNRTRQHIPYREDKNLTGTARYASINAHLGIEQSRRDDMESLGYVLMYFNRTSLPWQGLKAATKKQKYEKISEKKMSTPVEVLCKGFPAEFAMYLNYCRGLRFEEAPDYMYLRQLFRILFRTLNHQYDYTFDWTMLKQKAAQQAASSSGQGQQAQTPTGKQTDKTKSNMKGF
Assay: Inhibition of CK1alpha (unknown origin)
pIC50: −log10 of the molar value.

{"smilesInput": "COc1cc(OC)c(/C=C2\\C(=O)Nc3ccccc32)c(OC)c1", "tgt": "Casein kinase I isoform alpha (Homo sapiens)", "pIC50": 4.80}

###

Target: Casein kinase II subunit alpha (Homo sapiens, UniProt P68400)
Sequence (P68400 whole entry): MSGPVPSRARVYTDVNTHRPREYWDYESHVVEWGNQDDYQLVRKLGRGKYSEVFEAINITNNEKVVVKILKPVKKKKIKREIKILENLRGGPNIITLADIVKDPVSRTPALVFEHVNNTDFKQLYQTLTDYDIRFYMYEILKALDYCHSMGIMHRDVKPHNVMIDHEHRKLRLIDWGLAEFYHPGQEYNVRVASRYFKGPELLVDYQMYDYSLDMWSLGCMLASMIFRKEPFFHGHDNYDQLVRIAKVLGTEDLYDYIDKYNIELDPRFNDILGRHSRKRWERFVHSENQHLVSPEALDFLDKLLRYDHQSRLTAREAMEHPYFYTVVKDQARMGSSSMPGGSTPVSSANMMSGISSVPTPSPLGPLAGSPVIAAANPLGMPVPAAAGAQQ
Assay: Inhibition of CK2alpha (unknown origin) using RRRADDSDDDDD as substrate in presence of [gamma33P]-ATP by autoradiography
assayMetric: Ki (nM)

{"smilesInput": "O=C(O)/C=C/c1cc(Br)c(Br)c(Br)c1Br", "assayMetric": "Ki", "resultValue": 77}
